Data origin, for the record: patent US20190218277A1

target-desc: T1, Recombinant soluble E protein (0.8E-His) from DENV-2 (DENV-2, UniProt P14340 281-675)
T1 construct: also called DENV-2 E protein; DV2
experiment-description: SPR, Biacore T200
property-measured: binding result

Inquiry: Returns the measured binding result for the input binder. Input: DG_3CH987-SG182/3CL-SK1 (antibody, V domains shown) VH: QVQLVQSGPDVEKPGASVKVSCKASGYTFTSYYIHWVRQAPGQGLEWMGVINPRGGSRRSAQKFQGRITMTRDTSTSTVYMELSSLRSEDTAVYYCARGGRALFYDSYTTPFDGGSWWFDPWGQGSLVTVSS VL: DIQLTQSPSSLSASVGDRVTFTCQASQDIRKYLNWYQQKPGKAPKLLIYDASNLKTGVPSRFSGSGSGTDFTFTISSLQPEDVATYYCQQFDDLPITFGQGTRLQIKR
Reply text: binds

Inquiry: I would be grateful if you could share the reported binding result for DG_3CH1049-SG182/3CL119-SK1 (antibody, V domains shown) VH: QVQLVQSGAEVKKPGASVKVSCKASGYTFTSYYMHWVRQAPGQGLEWMGVINPRGGSRRSAQKFQGRVTMTRDTSTSTVYMELSSLRSEDTAVYYCARGGEALFYDSYTTPFDGGSWWFDPWGQGSLVTVSS VL: DIQLTQSPSSLSASVGDRVTFTCQASQEIRKYLNWYQQKPGKAPKLLIYDASNLKTGVPSRFSGSGSGTDFTFTISSLQPEDVATYYCQQFDDLPITFGQGTRLQIKR .
Reply text: binds

Inquiry: Query: binding result; subject: DG_3CH989-SG182/3CL119-SK1 (antibody, V domains shown) VH: QVQLVQSGAEVKKPGASVKVSCKASGYTFTSNYIHWVRQAPGQGLEWMGVINPRGGSRRSAQKFQGRVTMTRDTSTSTVYMELSSLRSEDTAVYYCARGGRALFYDSYTTPFDGGSWWFDPWGQGSLVTVSS VL: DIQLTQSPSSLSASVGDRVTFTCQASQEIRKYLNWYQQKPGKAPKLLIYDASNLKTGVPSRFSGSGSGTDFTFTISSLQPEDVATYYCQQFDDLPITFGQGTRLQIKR
Reply text: binds
